Origin of values: the Human Domainome abundance scans (Beltran et al. 2025)

B1: Ankyrin-1, residues 1405 to 1484; numbered along this chain, P16157 (parent)
chain: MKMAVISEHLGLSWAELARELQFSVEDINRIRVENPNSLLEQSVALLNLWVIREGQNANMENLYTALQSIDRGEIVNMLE

variants of: B1; test: abundance fitness (aPCA) (normalised: wild type 0, dead -1); higher = more abundant; growth selection in yeast, the domain comes from the species named; conditions: Homo sapiens
Value kind: abundance fitness

mutation_key=S38D value_kind="abundance fitness" recorded_measurement=-0.048
mutation_key=V76P value_kind="abundance fitness" recorded_measurement=-0.234
mutation_key=A58P value_kind="abundance fitness" recorded_measurement=0.195
mutation_key=M78K value_kind="abundance fitness" recorded_measurement=0.087
mutation_key=G55T value_kind="abundance fitness" recorded_measurement=-0.133
mutation_key=M78G value_kind="abundance fitness" recorded_measurement=-0.085
mutation_key=T65H value_kind="abundance fitness" recorded_measurement=-0.05
mutation_key=A66Q value_kind="abundance fitness" recorded_measurement=-0.402
mutation_key=I28A value_kind="abundance fitness" recorded_measurement=-0.522
mutation_key=E34V value_kind="abundance fitness" recorded_measurement=-0.308
mutation_key=R30P value_kind="abundance fitness" recorded_measurement=-1.1
mutation_key=L49I value_kind="abundance fitness" recorded_measurement=-0.058
mutation_key=V51F value_kind="abundance fitness" recorded_measurement=0.071
mutation_key=A45I value_kind="abundance fitness" recorded_measurement=-0.45
mutation_key=D27Y value_kind="abundance fitness" recorded_measurement=-0.597
mutation_key=W50Q value_kind="abundance fitness" recorded_measurement=-0.708
mutation_key=V25C value_kind="abundance fitness" recorded_measurement=-0.161
mutation_key=L47E value_kind="abundance fitness" recorded_measurement=-0.874
mutation_key=L63Q value_kind="abundance fitness" recorded_measurement=-0.075
mutation_key=E26R value_kind="abundance fitness" recorded_measurement=-0.104
mutation_key=N77Y value_kind="abundance fitness" recorded_measurement=-0.215
mutation_key=M60V value_kind="abundance fitness" recorded_measurement=0.117
mutation_key=E54F value_kind="abundance fitness" recorded_measurement=-0.606
mutation_key=I70A value_kind="abundance fitness" recorded_measurement=-0.808
mutation_key=L67G value_kind="abundance fitness" recorded_measurement=-0.852
mutation_key=D71M value_kind="abundance fitness" recorded_measurement=-0.127
mutation_key=R32H value_kind="abundance fitness" recorded_measurement=-0.294
mutation_key=V44L value_kind="abundance fitness" recorded_measurement=0.014
mutation_key=Q68M value_kind="abundance fitness" recorded_measurement=-0.181
mutation_key=R53G value_kind="abundance fitness" recorded_measurement=-0.507
mutation_key=A66C value_kind="abundance fitness" recorded_measurement=0.016
mutation_key=R32T value_kind="abundance fitness" recorded_measurement=-0.141
